Form field: pIC50 (one value per entry).
- Test system: Toxoplasma gondii
- assay name: Antiparasitic activity against Toxoplasma gondii 2F-1 expressing yellow fluorescent protein infected in HFF after 4 days
- Type: functional, organism-based
- protocol conditions: 2F-1, 96 h
pIC50: −log10 of the molar value.

chemical smiles	pIC50
C=CCO[C@]1(C)C[C@@H](C)CN(C(=O)NCC)[C@H](C)[C@@H](O)[C@](C)(O)[C@@H](CC)OC(=O)[C@H](C)[C@@H](O[C@H]2C[C@@](C)(OC)[C@@H](O)[C@H](C)O2)[C@H](C)[C@H]1O[C@@H]1O[C@H](C)C[C@H](N(C)C)[C@H]1O	4.48
CC[C@H]1OC(=O)[C@H](C)[C@@H](O[C@H]2C[C@@](C)(OC)[C@@H](O)[C@H](C)O2)[C@H](C)[C@@H](O[C@@H]2O[C@H](C)C[C@H](N(C)C)[C@H]2O)[C@](C)(OC)C[C@@H](C)CN(C(=O)NCc2ccccc2)[C@H](C)[C@@H](O)[C@]1(C)O	4.80
CC[C@H]1OC(=O)[C@H](C)[C@@H](O[C@H]2C[C@@](C)(OC)[C@@H](O)[C@H](C)O2)[C@H](C)[C@@H](O[C@@H]2O[C@H](C)C[C@H](N(C)C)[C@H]2O)[C@](C)(O)C[C@@H](C)CN(C(=O)NCc2ccccc2)[C@H](C)[C@@H](O)[C@]1(C)O	4.92
C=CCO[C@]1(C)C[C@@H](C)CN(CC=C)[C@H](C)[C@@H](O)[C@](C)(O)[C@@H](CC)OC(=O)[C@H](C)[C@@H](O[C@H]2C[C@@](C)(OC)[C@@H](O)[C@H](C)O2)[C@H](C)[C@H]1O[C@@H]1O[C@H](C)C[C@H](N(C)C)[C@H]1O	4.92

---

- Tested on: HFF
- assay name: Cytotoxicity against HFF after 48 hrs by MTS assay
- Assay type: cell-based
- protocol conditions: human
Form field: CC50 (one value per entry).
quantity: CC50 (µM)

chemical smiles	experimental target	quantity	test result
CC[C@H]1OC(=O)[C@H](C)[C@@H](O[C@H]2C[C@@](C)(OC)[C@@H](O)[C@H](C)O2)[C@H](C)[C@@H](O[C@@H]2O[C@H](C)C[C@H](N(C)C)[C@H]2O)[C@](C)(OC)C[C@@H](C)CN[C@H](C)[C@@H](O)[C@]1(C)O	HFF	CC50	460
CC[C@H]1OC(=O)[C@H](C)[C@@H](O[C@H]2C[C@@](C)(OC)[C@@H](O)[C@H](C)O2)[C@H](C)[C@@H](O[C@@H]2O[C@H](C)C[C@H](N(C)C)[C@H]2O)[C@](C)(OC)C[C@@H](C)CN(Cc2ccccc2)[C@H](C)[C@@H](O)[C@]1(C)O	HFF	CC50	13
C=CCO[C@]1(C)C[C@@H](C)CN(CC=C)[C@H](C)[C@@H](O)[C@](C)(O)[C@@H](CC)OC(=O)[C@H](C)[C@@H](O[C@H]2C[C@@](C)(OC)[C@@H](O)[C@H](C)O2)[C@H](C)[C@H]1O[C@@H]1O[C@H](C)C[C@H](N(C)C)[C@H]1O	HFF	CC50	38
CC[C@H]1OC(=O)[C@H](C)[C@@H](O[C@H]2C[C@@](C)(OC)[C@@H](O)[C@H](C)O2)[C@H](C)[C@@H](O[C@@H]2O[C@H](C)C[C@H](N(C)C)[C@H]2O)[C@](C)(OC)C[C@@H](C)C(=O)[C@H](C)[C@@H](O)[C@]1(C)O	HFF	CC50	260
